# study.system: T1, hGITR-hIgG (human, UniProt Q9Y5U5 26-161, limits assumed)
# T1 construct: not shown: human IgG part of the fusion
# T1 sequence: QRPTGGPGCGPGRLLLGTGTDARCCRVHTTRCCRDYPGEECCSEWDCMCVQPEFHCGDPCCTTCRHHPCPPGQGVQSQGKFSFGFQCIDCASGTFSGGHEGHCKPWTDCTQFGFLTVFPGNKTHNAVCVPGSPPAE
# assay.text: BIAcore SPR; hGITR-hIgG capture antigen, mAb analyte
kon listing for selected binders.
Respond numerically; units are M⁻¹ s⁻¹ and should not be typed.

Worked set:
>>> observed_measurement("49A1 (antibody, V domains shown, Parental rodent anti-human GITR monoclonal antibody from a hybridoma; kappa VL; also called 49A1.B1) VH: EVQLQESGPSLVKPSQTLSLTCSVTGDSITSGYWNWIRKFPGNKFEYMGFISYSGNTYYNPSLRSRISITRDTSKNQYFLHLNSVTTEDTATYYCSRRHLISGYGWFAYWGQGTLVTVSA VL: VIVMTQSHKFMSTSIGDRVNITCKASQDVISAVAWYQQKPGQSPKLLIYWASTRHTGVPDRFTGSGSGTDFTLTINSVQAEDRALYYCQQHSYTPPWTFGGGTNLEIKR")
478000
>>> observed_measurement("3D6 (antibody, V domains shown, Parental rodent anti-human GITR monoclonal antibody from a hybridoma; kappa VL; also called JL5.3D6; hybridoma PTA-9889) VH: EVQLVESGGGLVQPGRSLKLSCAASGFTFSDYYMAWVRQAPTKGLEWVAYIHANGGSTYYRDSVRGRFSISRDNGKSTLYLQMDSLRSEDTATYYCTTGSFMYAADYYIMDAWGQGASVTVSS VL: DVVMTQTPVSLSVSLGNQASISCRSSQSLLHSDGNTFLSWYFQKPGQSPQLLIYLASNRFSGVSNRFSGSGSGTDFTLKISRVEPEDLGVYYCFQHTHLPLTFGSGTKLEIKR")
95000
>>> observed_measurement("6H6 (antibody, V domains shown, Parental rodent anti-human GITR monoclonal antibody from a hybridoma; kappa VL; also called 6H6.C3; hybridoma PTA-9892) VH: QVQLQQSGAELMKPGASVKISCKATGYTFSRYWIEWIKQRPGHGLEWIGEILPGSGSSNYNEKFKDKATFTADTSSNTAYMQFSSLTSEDSAVYYCARKVYYYAMDFWGQGTSVTVSS VL: QIVLTQSPAIMSVSLGERVTVTCTASSSVSSSYFHWYQQKPGSSPKLWIYSTSNLASGVPARFSGSGSGTSYSLTISTMEAEDAATYYCHQYHRSPRTFGGGTKLEIKR")
610000

Req: Data request, read-out kon, for 35D8 (antibody, V domains shown, Parental rodent anti-human GITR monoclonal antibody from a hybridoma; kappa VL; also called 35D8.B10) VH: EVQLQESGPSLVKPSQTLSLTCSVTGDSITSGYWNWIRKFPGNKLEYMGYISYSGSTYYNPSLRGRISITRDTSKSQYYLQLSSVTTEDTATYYCSRRHLGSGYGWFAYWGQGTLVTVSA VL: DIVMTQSHKFMSTSVGDRVSITCKASQDVNTAVAWYQQKPGQSPKLLIYWASTRHTGVPDRFTGSGSGTDYALTINSVQAEDLALYYCQQHSYTPPWTFGGGTKLEIRR
Resp: 801000
